Quick reference: activity at 100 µM of the listed items.
system: M. mycetomatis genome strain MM55; test: CLSI M38-A2 based in vitro susceptibility screening (XTT or resazurin), growth at fixed concentration; format: cell-based, Madurella mycetomatis; conditions: Madurella mycetomatis, 100 uM, mean of three replicates; read-out: Percentage survival at 100um, 100 uM mean
TEST_READOUT: activity at 100 µM (%)

[[record]]
compound = "COc1ccc(COc2cc3oc(=O)c4cc(C(C)O)ccc4c3cc2OC)cc1 (stereo not shown)"
test_readout = "activity at 100 µM"
assay_result = 91.5

[[record]]
compound = "CCc1cc(CCC(=O)Nc2ccccc2O)c(=O)[nH]c1C"
test_readout = "activity at 100 µM"
assay_result = 83.9

[[record]]
compound = "CC(=O)N1c2ccccc2NC2=C(C(=O)CC(C)(C)C2)C1c1ccc(OCc2ccccc2)cc1 (stereo not shown)"
test_readout = "activity at 100 µM"
assay_result = 97.8

[[record]]
compound = "CN1CCN(Cc2ccc(-c3cnc4[nH]cc(-c5ccc6[nH]ccc6c5)c4c3)cc2)CC1"
test_readout = "activity at 100 µM"
assay_result = 16.3

[[record]]
compound = "CCOC(=O)/C=C/[C@H](C[C@@H]1CCNC1=O)NC(=O)[C@@H](CC(=O)[C@@H](NC(=O)c1cc(C)on1)C(C)C)Cc1ccc(F)cc1"
test_readout = "activity at 100 µM"
assay_result = 93.9

[[record]]
compound = "CC[C@@]1(O)C(=O)OCc2c1cc1n(c2=O)Cc2cc3c(CN(C)C)c(O)ccc3nc2-1"
test_readout = "activity at 100 µM"
assay_result = 89.5

[[record]]
compound = "N=c1n(CCN2CCCCC2)c2ccccc2n1CC(O)COc1ccc(Cl)cc1Cl (stereo not shown)"
test_readout = "activity at 100 µM"
assay_result = -2.82

[[record]]
compound = "COc1cc2c(O)c3c(c(-c4ccc5c(c4)OCO5)c2cc1OC)C(=O)OC3"
test_readout = "activity at 100 µM"
assay_result = 107

[[record]]
compound = "C[C@H](NC(=O)C(=O)Nc1ccccc1C(C)(C)C)C(=O)N[C@@H](CC(=O)O)C(=O)COc1c(F)c(F)cc(F)c1F"
test_readout = "activity at 100 µM"
assay_result = 70.9

[[record]]
compound = "Oc1c(C(Nc2ccccn2)c2ccccc2)ccc2cccnc12 (stereo not shown)"
test_readout = "activity at 100 µM"
assay_result = 11.7

[[record]]
compound = "Cc1nc2ccc(Cl)cc2c(-c2ccccc2)c1CC(=O)O"
test_readout = "activity at 100 µM"
assay_result = 83.4

[[record]]
compound = "CS(=O)(=O)c1ccc(Oc2ccc(Cl)cc2)cc1"
test_readout = "activity at 100 µM"
assay_result = 50.7

[[record]]
compound = "CCCCCCCCCN1C[C@@H](O)[C@H](O)[C@@H](O)[C@@H]1CO"
test_readout = "activity at 100 µM"
assay_result = 87.5

[[record]]
compound = "O=C(c1ccc(F)cc1)N1CCN2C(=O)c3ccccc3C12c1ccccc1 (stereo not shown)"
test_readout = "activity at 100 µM"
assay_result = 76.1

[[record]]
compound = "Oc1ccc(NCc2ccccc2OCc2ccccc2)cc1"
test_readout = "activity at 100 µM"
assay_result = 8.06

[[record]]
compound = "CCOCc1nc2c(N)nc3ccccc3c2n1CC(C)(C)O"
test_readout = "activity at 100 µM"
assay_result = 90.4

[[record]]
compound = "O=C(c1nc2c(C(F)(F)F)cc(C3CC3)cn2c1Cl)N1CCN([C@H]2CC[C@H](O)CC2)C(=O)C1"
test_readout = "activity at 100 µM"
assay_result = 86.8

[[record]]
compound = "COc1ccc(NS(=O)(=O)c2ccc(Cl)s2)cn1"
test_readout = "activity at 100 µM"
assay_result = 61.8

[[record]]
compound = "NC(=O)c1[nH]c2ccc(S(N)(=O)=O)cc2c1-c1ccccc1"
test_readout = "activity at 100 µM"
assay_result = 70.1

